Data provenance: ChEMBL document CHEMBL2040770

testProtocol: Selectivity index, ratio of CC50 for human Huh7 cells to EC50 for Hepatitic C virus genotype 1b clone ET
Type: toxicity, cell-based, Huh-7
conditionLabel: read-out: Ratio CC50/EC50
assayReadout: selectivity ratio

Look over these answered cases.
{"recordSmiles": "COc1ccc2c(c1)C=C1Cn3c-2c(C2CCCCC2)c2ccc(cc23)C(=O)NS(=O)(=O)N(C)CCCCN(C)C1=O", "selectivity ratio": "> 330"}
{"recordSmiles": "COc1ccc2c(c1)C=C1Cn3c-2c(C2CCCCC2)c2ccc(cc23)C(=O)NS(=O)(=O)N(C)CCN(C)CCNC1=O", "selectivity ratio": "> 58"}
{"recordSmiles": "COc1ccc2c(c1)C=C1Cn3c-2c(C2CCCCC2)c2ccc(cc23)C(=O)NS(=O)(=O)NCCCCN(C)C1=O", "selectivity ratio": "> 58"}
{"recordSmiles": "CN1CCOCCN(C)S(=O)(=O)NC(=O)c2ccc3c(C4CCCCC4)c4n(c3c2)CC(=Cc2cc(F)ccc2-4)C1=O", "selectivity ratio": "> 250"}
{"recordSmiles": "CN1CCCCN(C)S(=O)(=O)NC(=O)c2ccc3c(C4CCCCC4)c4n(c3c2)CC(=Cc2ccc(Cl)cc2-4)C1=O", "selectivity ratio": "> 2"}

Field: selectivity ratio. Fill in for each record below.
1. COc1ccc2c(c1)C=C1Cn3c-2c(C2CCCCC2)c2ccc(cc23)C(=O)NS(=O)(=O)N2CCN(CCNC1=O)CC2
2. COc1ccc2c(c1)C=C1Cn3c-2c(C2CCCCC2)c2ccc(cc23)C(=O)NS(=O)(=O)NCCN(C)CCNC1=O

> 40
> 68
